experimental_parameters: 293.15 K; 101.33 kPa; Liquid; Anton-Paar DSA48 sound analyzer
Overview of reported speed of sound across a group of compounds:

{"columns": ["compound", "speed of sound / m/s"],
 "data": [
  ["CCCC[n+]1cccc(C)c1.F[B-](F)(F)F [1-butyl-3-methylpyridinium tetrafluoroborate]", 1599.8],
  ["C[N+](=O)[O-] [nitromethane]", 1339.6],
  ["CCCCCCn1cc[n+](C)c1.F[B-](F)(F)F [1-hexyl-3-methylimidazolium tetrafluoroborate]", 1532.7],
  ["CCCCn1cc[n+](C)c1.O=S(=O)([O-])C(F)(F)F [1-butyl-3-methylimidazolium trifluoromethanesulfonate]", 1403.4],
  ["CCn1cc[n+](C)c1.O=S(=O)([O-])C(F)(F)F [1-ethyl-3-methylimidazolium trifluoromethanesulfonate]", 1447],
  ["CCOS(=O)(=O)[O-].CCn1cc[n+](C)c1 [1-ethyl-3-methylimidazolium ethyl sulfate]", 1691.4],
  ["CCCCn1cc[n+](C)c1.F[B-](F)(F)F [1-butyl-3-methylimidazolium tetrafluoroborate]", 1594.9],
  ["CCCCn1cc[n+](C)c1.COS(=O)(=O)[O-] [1-butyl-3-methylimidazolium methyl sulfate]", 1670.9]
]}

====

experimental_parameters: 298.15 K; 101.33 kPa; Liquid; Anton-Paar DSA48 sound analyzer
parameter: speed of sound (m/s)

{"columns": ["molecule", "measured_number"],
 "data": [
  ["CCCCn1cc[n+](C)c1.COS(=O)(=O)[O-] [1-butyl-3-methylimidazolium methyl sulfate]", 1658.4],
  ["CCCCCCn1cc[n+](C)c1.F[B-](F)(F)F [1-hexyl-3-methylimidazolium tetrafluoroborate]", 1519.5],
  ["CCCC[n+]1cccc(C)c1.F[B-](F)(F)F [1-butyl-3-methylpyridinium tetrafluoroborate]", 1587],
  ["C[N+](=O)[O-] [nitromethane]", 1320.1],
  ["CCOS(=O)(=O)[O-].CCn1cc[n+](C)c1 [1-ethyl-3-methylimidazolium ethyl sulfate]", 1679],
  ["CCn1cc[n+](C)c1.O=S(=O)([O-])C(F)(F)F [1-ethyl-3-methylimidazolium trifluoromethanesulfonate]", 1435.6],
  ["CCCCn1cc[n+](C)c1.F[B-](F)(F)F [1-butyl-3-methylimidazolium tetrafluoroborate]", 1576.1],
  ["CCCCn1cc[n+](C)c1.O=S(=O)([O-])C(F)(F)F [1-butyl-3-methylimidazolium trifluoromethanesulfonate]", 1392.1]
]}

====

experimental_parameters: 318.15 K; 101.33 kPa; Liquid; Anton-Paar DSA48 sound analyzer
Overview of reported speed of sound across a group of compounds:
parameter: speed of sound (m/s)

{"columns": ["compound", "parameter", "units_of_measure", "measured_number"],
 "data": [
  ["CCCCn1cc[n+](C)c1.F[B-](F)(F)F [1-butyl-3-methylimidazolium tetrafluoroborate]", "speed of sound", "m/s", 1521.2],
  ["CCCCn1cc[n+](C)c1.O=S(=O)([O-])C(F)(F)F [1-butyl-3-methylimidazolium trifluoromethanesulfonate]", "speed of sound", "m/s", 1348.1],
  ["CCOS(=O)(=O)[O-].CCn1cc[n+](C)c1 [1-ethyl-3-methylimidazolium ethyl sulfate]", "speed of sound", "m/s", 1629.2],
  ["CCCCCCn1cc[n+](C)c1.F[B-](F)(F)F [1-hexyl-3-methylimidazolium tetrafluoroborate]", "speed of sound", "m/s", 1470.5],
  ["CCn1cc[n+](C)c1.O=S(=O)([O-])C(F)(F)F [1-ethyl-3-methylimidazolium trifluoromethanesulfonate]", "speed of sound", "m/s", 1391.1],
  ["C[N+](=O)[O-] [nitromethane]", "speed of sound", "m/s", 1241.6],
  ["CCCCn1cc[n+](C)c1.COS(=O)(=O)[O-] [1-butyl-3-methylimidazolium methyl sulfate]", "speed of sound", "m/s", 1608.6],
  ["CCCC[n+]1cccc(C)c1.F[B-](F)(F)F [1-butyl-3-methylpyridinium tetrafluoroborate]", "speed of sound", "m/s", 1538.9]
]}

====

experimental_parameters: 293.15 K; 101.33 kPa; Liquid; Vibrating tube method
parameter: mass density (kg/m3)

{"columns": ["compound", "measured_number"],
 "data": [
  ["CCCCn1cc[n+](C)c1.O=S(=O)([O-])C(F)(F)F [1-butyl-3-methylimidazolium trifluoromethanesulfonate]", 1301.6],
  ["C[N+](=O)[O-]", 1140.2],
  ["CCCCn1cc[n+](C)c1.COS(=O)(=O)[O-] [1-butyl-3-methylimidazolium methyl sulfate]", 1210.7],
  ["CCOS(=O)(=O)[O-].CCn1cc[n+](C)c1 [1-ethyl-3-methylimidazolium ethyl sulfate]", 1240.6],
  ["CCCCCCn1cc[n+](C)c1.F[B-](F)(F)F [1-hexyl-3-methylimidazolium tetrafluoroborate]", 1148.8],
  ["CCn1cc[n+](C)c1.O=S(=O)([O-])C(F)(F)F [1-ethyl-3-methylimidazolium trifluoromethanesulfonate]", 1389.5],
  ["CCCCn1cc[n+](C)c1.F[B-](F)(F)F [1-butyl-3-methylimidazolium tetrafluoroborate]", 1207.6]
]}

====

experimental_parameters: 318.15 K; 101.33 kPa; Liquid; Vibrating tube method

{"columns": ["compound", "mass density (kg/m3)"],
 "data": [
  ["C[N+](=O)[O-]", 1106],
  ["CCCCn1cc[n+](C)c1.F[B-](F)(F)F [1-butyl-3-methylimidazolium tetrafluoroborate]", 1189.9],
  ["CCOS(=O)(=O)[O-].CCn1cc[n+](C)c1 [1-ethyl-3-methylimidazolium ethyl sulfate]", 1223.7],
  ["CCCCCCn1cc[n+](C)c1.F[B-](F)(F)F [1-hexyl-3-methylimidazolium tetrafluoroborate]", 1131.6],
  ["CCn1cc[n+](C)c1.O=S(=O)([O-])C(F)(F)F [1-ethyl-3-methylimidazolium trifluoromethanesulfonate]", 1368.6],
  ["CCCCn1cc[n+](C)c1.O=S(=O)([O-])C(F)(F)F [1-butyl-3-methylimidazolium trifluoromethanesulfonate]", 1281.9],
  ["CCCCn1cc[n+](C)c1.COS(=O)(=O)[O-] [1-butyl-3-methylimidazolium methyl sulfate]", 1194.2]
]}

====

assay_method_text: molar heat capacity at constant pressure
experimental_parameters: 293.15 K; 101.33 kPa; Liquid; Small sample (50 mg) DSC
Use Fulfilled when the recorded molar heat capacity at constant pressure is no lower than 400 J/K/mol; use Not fulfilled when it is lower.

{"columns": ["molecule", "group"],
 "data": [
  ["CCCCn1cc[n+](C)c1.F[B-](F)(F)F [1-butyl-3-methylimidazolium tetrafluoroborate]", "Not fulfilled"],
  ["CCCCn1cc[n+](C)c1.O=S(=O)([O-])C(F)(F)F [1-butyl-3-methylimidazolium trifluoromethanesulfonate]", "Fulfilled"],
  ["CCn1cc[n+](C)c1.O=S(=O)([O-])C(F)(F)F [1-ethyl-3-methylimidazolium trifluoromethanesulfonate]", "Not fulfilled"],
  ["CCCCn1cc[n+](C)c1.COS(=O)(=O)[O-] [1-butyl-3-methylimidazolium methyl sulfate]", "Fulfilled"],
  ["CCCCCCn1cc[n+](C)c1.F[B-](F)(F)F [1-hexyl-3-methylimidazolium tetrafluoroborate]", "Fulfilled"],
  ["C[N+](=O)[O-] [nitromethane]", "Not fulfilled"]
]}

====

assay_method_text: molar heat capacity at constant pressure
experimental_parameters: 303.15 K; 101.33 kPa; Liquid; Small sample (50 mg) DSC
parameter: molar heat capacity at constant pressure (J/K/mol)

{"columns": ["molecule", "parameter", "measured_number"],
 "data": [
  ["CCCCn1cc[n+](C)c1.O=S(=O)([O-])C(F)(F)F [1-butyl-3-methylimidazolium trifluoromethanesulfonate]", "molar heat capacity at constant pressure", 426.7],
  ["CCCCCCn1cc[n+](C)c1.F[B-](F)(F)F [1-hexyl-3-methylimidazolium tetrafluoroborate]", "molar heat capacity at constant pressure", 430.4],
  ["C[N+](=O)[O-] [nitromethane]", "molar heat capacity at constant pressure", 107.3],
  ["CCCCn1cc[n+](C)c1.F[B-](F)(F)F [1-butyl-3-methylimidazolium tetrafluoroborate]", "molar heat capacity at constant pressure", 366.1],
  ["CCOS(=O)(=O)[O-].CCn1cc[n+](C)c1 [1-ethyl-3-methylimidazolium ethyl sulfate]", "molar heat capacity at constant pressure", 396.8],
  ["CCn1cc[n+](C)c1.O=S(=O)([O-])C(F)(F)F [1-ethyl-3-methylimidazolium trifluoromethanesulfonate]", "molar heat capacity at constant pressure", 365.3],
  ["CCCCn1cc[n+](C)c1.COS(=O)(=O)[O-] [1-butyl-3-methylimidazolium methyl sulfate]", "molar heat capacity at constant pressure", 418.5]
]}

====

Overview of reported molar heat capacity at constant pressure across a group of molecules:
assay_method_text: molar heat capacity at constant pressure
experimental_parameters: 313.15 K; 101.33 kPa; Liquid; Small sample (50 mg) DSC

{"columns": ["molecule", "units_of_measure", "molar heat capacity at constant pressure"],
 "data": [
  ["CCCCCCn1cc[n+](C)c1.F[B-](F)(F)F [1-hexyl-3-methylimidazolium tetrafluoroborate]", "J/K/mol", 435.5],
  ["CCOS(=O)(=O)[O-].CCn1cc[n+](C)c1 [1-ethyl-3-methylimidazolium ethyl sulfate]", "J/K/mol", 402],
  ["C[N+](=O)[O-] [nitromethane]", "J/K/mol", 108.2],
  ["CCCCn1cc[n+](C)c1.F[B-](F)(F)F [1-butyl-3-methylimidazolium tetrafluoroborate]", "J/K/mol", 371]
]}
